Here, each record is paired with measured melanin content ratio data.
System: Mouse B16 melanoma cell
Experiment: Quantification of melanin (melanin content ratio, absorbance at 475 nm)
Format: cell-based
Details: FIG. 1; 11.1 ppm; 3 days
Number only, in %; omit the unit.

Check out these entries, answers already filled in.
O=C(O)[C@H]1C[C@H](O)CN1 (stereo in doubt) [4-trans-D-hydroxyproline]; 99
O=C(O)[C@@H]1C[C@@H](O)CN1 (stereo in doubt) [4-trans-L-hydroxyproline]; 108
O=C(O)[C@H]1C[C@@H](O)CN1 (stereo in doubt) [4-cis-D-hydroxyproline]; 98

Now look at this one.
Query O=C(O)[C@@H]1C[C@H](O)CN1 (stereo in doubt) [4-cis-L-hydroxyproline] yields melanin content ratio of 83

###

// reported number of cells when the control was represented as 100% per item
Tested on: Mouse B16 melanoma cell
Experiment: Quantification of the number of cells (alamarBlue), cell growth / cell toxicity
Format: cell-based
Details: FIG. 1; 11.1 ppm; 3 days
Method: Mouse B16 melanoma cell was used. […] 3 days after the addition of a solution of test compound, the medium was removed by suction. […] Thirty minutes later, the fluorescence was measured with excitation wavelength of 544 nm and measurement wavelength of 590 nm. […] When it is less than 80%, it was determined as “toxic.” […]
Numbers only; they are read as %.

O=C(O)[C@H]1C[C@H](O)CN1 (stereo in doubt) [4-trans-D-hydroxyproline]; 100
O=C(O)[C@@H]1C[C@H](O)CN1 (stereo in doubt) [4-cis-L-hydroxyproline]; 92
O=C(O)[C@@H]1C[C@@H](O)CN1 (stereo in doubt) [4-trans-L-hydroxyproline]; 103

# next compound below
Record summary for O=C(O)[C@H]1C[C@@H](O)CN1 (stereo in doubt) [4-cis-D-hydroxyproline] : reported number of cells when the control was represented as 100% = 98

###

Test system: Mouse B16 melanoma cell
Assay: Quantification of the number of cells (alamarBlue), cell growth / cell toxicity
Type: cell-based
Settings: FIG. 1; 33.3 ppm; 3 days
Experimental: Mouse B16 melanoma cell was used. […] 3 days after the addition of a solution of test compound, the medium was removed by suction. […] Thirty minutes later, the fluorescence was measured with excitation wavelength of 544 nm and measurement wavelength of 590 nm. […] When it is less than 80%, it was determined as “toxic.” […]
number of cells when the control was represented as 100% for assorted compounds
Use % as the unit, but write only the number.

O=C(O)[C@@H]1C[C@@H](O)CN1 (stereo in doubt) [4-trans-L-hydroxyproline]; 99
O=C(O)[C@H]1C[C@H](O)CN1 (stereo in doubt) [4-trans-D-hydroxyproline]; 101
O=C(O)[C@@H]1C[C@H](O)CN1 (stereo in doubt) [4-cis-L-hydroxyproline]; 84

Could you now look at the following compound, please?
# lookup: O=C(O)[C@H]1C[C@@H](O)CN1 (stereo in doubt) [4-cis-D-hydroxyproline] on Mouse B16 melanoma cell, number of cells when the control was represented as 100% = 101

###

System: Mouse B16 melanoma cell
Assay: Quantification of melanin (melanin content ratio, absorbance at 475 nm)
Type: cell-based
Conditions: FIG. 1; 3.33 ppm; 3 days
Protocol: Mouse B16 melanoma cell was used. […] The medium was removed by suction. After washing three times with the buffer (phosphate buffer solution 50 mM, pH 6.8), the cells were lysed by addition of 1 N NaOH, and the absorbance was measured at 475 nm. By having the obtained value as a relative value of the melanin content, the ratio of melanin content (%) for a group added with the test compound compared to a group not added with the test compound (i.e. only the solvent was added) was calculated. […]
OUTCOME MEASURE: melanin content ratio (%)
Kindly provide the numeric value in % only, without the unit symbol.

Sample records with melanin content ratio:
O=C(O)[C@H]1C[C@H](O)CN1 (stereo in doubt) [4-trans-D-hydroxyproline]; 97
O=C(O)[C@@H]1C[C@H](O)CN1 (stereo in doubt) [4-cis-L-hydroxyproline]; 92
O=C(O)[C@H]1C[C@@H](O)CN1 (stereo in doubt) [4-cis-D-hydroxyproline]; 100

// recorded melanin content ratio for O=C(O)[C@@H]1C[C@@H](O)CN1 (stereo in doubt) [4-trans-L-hydroxyproline] : 103

Cited source: patent US20120122951A1
